Biological target: T1, EsCas13d, nuclease-dead (Eubacterium siraeum, UniProt B0MS50, R295A;H300A;R849A;H854A)
T1 sequence: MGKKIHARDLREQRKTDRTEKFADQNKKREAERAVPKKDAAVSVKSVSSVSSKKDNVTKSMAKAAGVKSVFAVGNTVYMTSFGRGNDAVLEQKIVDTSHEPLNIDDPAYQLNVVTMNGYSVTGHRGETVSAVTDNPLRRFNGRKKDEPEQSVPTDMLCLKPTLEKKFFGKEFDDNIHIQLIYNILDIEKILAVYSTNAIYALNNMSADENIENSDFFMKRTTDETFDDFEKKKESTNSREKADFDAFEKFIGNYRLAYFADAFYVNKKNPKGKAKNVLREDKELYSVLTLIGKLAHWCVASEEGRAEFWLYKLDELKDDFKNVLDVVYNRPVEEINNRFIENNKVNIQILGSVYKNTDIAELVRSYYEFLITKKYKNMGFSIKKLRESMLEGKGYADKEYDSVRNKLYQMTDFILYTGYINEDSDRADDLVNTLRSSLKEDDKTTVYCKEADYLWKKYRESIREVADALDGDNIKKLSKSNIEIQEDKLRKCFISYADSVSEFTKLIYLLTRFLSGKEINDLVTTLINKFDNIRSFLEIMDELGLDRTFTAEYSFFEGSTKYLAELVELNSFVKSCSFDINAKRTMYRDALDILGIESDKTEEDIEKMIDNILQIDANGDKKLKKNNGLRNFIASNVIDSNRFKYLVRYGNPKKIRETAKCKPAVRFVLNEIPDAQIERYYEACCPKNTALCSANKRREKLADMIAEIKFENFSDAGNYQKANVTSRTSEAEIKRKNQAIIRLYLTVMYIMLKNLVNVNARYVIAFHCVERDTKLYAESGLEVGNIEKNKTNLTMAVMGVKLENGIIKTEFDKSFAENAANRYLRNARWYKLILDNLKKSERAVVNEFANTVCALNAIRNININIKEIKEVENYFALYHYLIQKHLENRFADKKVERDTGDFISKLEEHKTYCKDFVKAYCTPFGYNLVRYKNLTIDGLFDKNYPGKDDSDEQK
Assay: crRNA (strand 1, pre-loaded); Mg2+; 40 mM Tris-HCl pH 7.5, 150 mM NaCl, 6 mM MgCl2, 1 mM DTT, 0.1% Tween-20, 0.2 mg/ml BSA; 25 C; 10 min per concentration, then washed
Details: tags: His6-TwinStrep-SUMO cleaved; N-terminal SNAP kept (SNAP-Surface 488); label: 3' end held by stalled T7 RNA polymerase
Would you mind telling me the reported pKd of each entry?
Quick note: pKd values are minus log10 of concentrations in mol/L.

// pKd lookup, binder = target 2 MT 5'PFS ACC 3'PFS CAC (mixed) RNA 1: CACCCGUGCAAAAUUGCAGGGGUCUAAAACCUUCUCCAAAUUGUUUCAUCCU RNA 2: GGGAAUGGAUCCACAUCUACGAAUUCACCAGGAUGAAACAAUUUGGAGAAGCACAGAUCGGAAGAGCACACGU , result: 8.13

// pKd lookup, binder = target 1 insG 3' of 16,insA 3' of 4 (mixed) RNA 1: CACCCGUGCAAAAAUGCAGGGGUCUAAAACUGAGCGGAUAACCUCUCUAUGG RNA 2: GGGAAUGGAUCCACAUCUACGAAUUCGUACCAUAGAGGAGGUUAUCCGCAUCACCGAGAUCGGAAGAGCACACGU , result: 7.98

// pKd lookup, binder = target 2 MT 5'PFS CUU 3'PFS UCG (mixed) RNA 1: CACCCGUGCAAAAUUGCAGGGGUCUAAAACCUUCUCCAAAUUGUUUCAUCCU RNA 2: GGGAAUGGAUCCACAUCUACGAAUUCCUUAGGAUGAAACAAUUUGGAGAAGUCGAGAUCGGAAGAGCACACGU , result: 8.34

// pKd lookup, binder = target 2 MT 5'PFS AGA 3'PFS CGC (mixed) RNA 1: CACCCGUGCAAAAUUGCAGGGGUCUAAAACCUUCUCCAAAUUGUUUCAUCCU RNA 2: GGGAAUGGAUCCACAUCUACGAAUUCAGAAGGAUGAAACAAUUUGGAGAAGCGCAGAUCGGAAGAGCACACGU , result: 8.19

// pKd lookup, binder = target 1 insU 3' of 4,insA 3' of 2 (mixed) RNA 1: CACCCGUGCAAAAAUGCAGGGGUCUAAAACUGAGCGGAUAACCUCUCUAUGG RNA 2: GGGAAUGGAUCCACAUCUACGAAUUCGUACCAUAGAGAGGUUAUCCGCUUCAACCGAGAUCGGAAGAGCACACGU , result: 8.11

// pKd lookup, binder = target 1 A1C,A14G (mixed) RNA 1: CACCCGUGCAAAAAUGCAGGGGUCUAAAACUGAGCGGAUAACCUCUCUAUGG RNA 2: GGGAAUGGAUCCACAUCUACGAAUUCGUACCAUAGAGGGGUUAUCCGCUCCCCGAGAUCGGAAGAGCACACGU , result: 7.60

// pKd lookup, binder = target 1 insU 3' of 12,insA 3' of 10 (mixed) RNA 1: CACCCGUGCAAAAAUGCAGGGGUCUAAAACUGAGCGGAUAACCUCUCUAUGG RNA 2: GGGAAUGGAUCCACAUCUACGAAUUCGUACCAUAGAGAGGUUUAAUCCGCUCACCGAGAUCGGAAGAGCACACGU , result: 7.99

// pKd lookup, binder = target 1 insC 3' of 16,insA 3' of 8 (mixed) RNA 1: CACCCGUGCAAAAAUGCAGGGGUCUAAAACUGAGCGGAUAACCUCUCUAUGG RNA 2: GGGAAUGGAUCCACAUCUACGAAUUCGUACCAUAGACGAGGUUAUACCGCUCACCGAGAUCGGAAGAGCACACGU , result: 7.25

// pKd lookup, binder = target 1 insU 3' of 22,insG 3' of 7 (mixed) RNA 1: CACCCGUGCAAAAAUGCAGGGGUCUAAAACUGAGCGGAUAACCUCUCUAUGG RNA 2: GGGAAUGGAUCCACAUCUACGAAUUCGUACUCAUAGAGAGGUUAUCGCGCUCACCGAGAUCGGAAGAGCACACGU , result: 7.64

// pKd lookup, binder = target 3 del2,del6 (mixed) RNA 1: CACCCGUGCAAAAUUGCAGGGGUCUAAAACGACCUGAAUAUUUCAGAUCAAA RNA 2: GGGAAUGGAUCCACAUCUACGAAUUCGUUUUUGAUCUGAAAUAUUAGGCUGCAGAUCGGAAGAGCACACGU , result: 7.74

// pKd lookup, binder = target 2 MT 5'PFS AUA 3'PFS CAU (mixed) RNA 1: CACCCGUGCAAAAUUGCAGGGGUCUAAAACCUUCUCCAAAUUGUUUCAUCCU RNA 2: GGGAAUGGAUCCACAUCUACGAAUUCAUAAGGAUGAAACAAUUUGGAGAAGCAUAGAUCGGAAGAGCACACGU , result: 8.34

// pKd lookup, binder = target 1 insG 3' of 10,insC 3' of 10 (mixed) RNA 1: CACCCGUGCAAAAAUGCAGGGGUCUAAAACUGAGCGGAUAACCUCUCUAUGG RNA 2: GGGAAUGGAUCCACAUCUACGAAUUCGUACCAUAGAGAGGUUGCAUCCGCUCACCGAGAUCGGAAGAGCACACGU , result: 7.63

// pKd lookup, binder = target 1 insA 3' of 22,insA 3' of 4 (mixed) RNA 1: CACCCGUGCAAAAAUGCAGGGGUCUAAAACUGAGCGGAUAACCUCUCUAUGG RNA 2: GGGAAUGGAUCCACAUCUACGAAUUCGUACACAUAGAGAGGUUAUCCGCAUCACCGAGAUCGGAAGAGCACACGU , result: 8.11

// pKd lookup, binder = target 3 insG 3' of 8,insA 3' of 2 (mixed) RNA 1: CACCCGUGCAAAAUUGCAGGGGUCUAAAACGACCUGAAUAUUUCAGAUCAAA RNA 2: GGGAAUGGAUCCACAUCUACGAAUUCGUUUUUGAUCUGAAAUAUGUCAGGUACUGCAGAUCGGAAGAGCACACGU , result: 7.17

// pKd lookup, binder = target 2 MT 5'PFS AGC 3'PFS UUG (mixed) RNA 1: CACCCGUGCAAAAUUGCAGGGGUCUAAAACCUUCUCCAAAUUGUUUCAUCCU RNA 2: GGGAAUGGAUCCACAUCUACGAAUUCAGCAGGAUGAAACAAUUUGGAGAAGUUGAGAUCGGAAGAGCACACGU , result: 7.97
